Target: Adenosine receptor A1 (Rattus norvegicus)
Sequence (P25099 whole entry): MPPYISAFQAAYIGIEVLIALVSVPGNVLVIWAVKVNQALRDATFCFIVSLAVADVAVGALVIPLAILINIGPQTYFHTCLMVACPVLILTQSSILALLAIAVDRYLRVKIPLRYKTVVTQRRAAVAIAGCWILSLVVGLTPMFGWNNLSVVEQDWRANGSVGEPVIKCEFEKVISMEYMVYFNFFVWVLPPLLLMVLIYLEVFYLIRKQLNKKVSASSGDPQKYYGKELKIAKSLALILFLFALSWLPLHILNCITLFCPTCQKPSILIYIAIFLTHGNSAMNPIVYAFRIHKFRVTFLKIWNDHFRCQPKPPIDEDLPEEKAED
Assay: Antagonist activity at rat adenosine A1 receptor
metric name: Ki (nM)
Response body: numeric value in nM, unit text excluded.

Returns the measured Ki for the input compound. Input: "Cc1ccc(-c2cc(-c3cccc(C(=O)N4CCCCC4)c3)nc(N)n2)o1"
6.34

###

Test: Displacement of [3H]-SCH23390 from D1 receptor in rat striatum incubated for 30 mins by competitive radioligand binding based scintillation counter analysis
metric name: pKi
On this scale, pKi is minus log10 of a concentration expressed in M (mol/L).

molecule_smiles=CCCN1CCC[C@H]2c3[nH]c4ccccc4c3CC[C@@H]21 numeric_value=7.70

Returns the measured pKi for the input compound. Input: "C#CCN1CCC[C@H]2c3[nH]c4ccccc4c3CC[C@@H]21"
8.67

###

Target: Adenosine receptor A1 (Homo sapiens, UniProt P30542)
Sequence (P30542 whole entry): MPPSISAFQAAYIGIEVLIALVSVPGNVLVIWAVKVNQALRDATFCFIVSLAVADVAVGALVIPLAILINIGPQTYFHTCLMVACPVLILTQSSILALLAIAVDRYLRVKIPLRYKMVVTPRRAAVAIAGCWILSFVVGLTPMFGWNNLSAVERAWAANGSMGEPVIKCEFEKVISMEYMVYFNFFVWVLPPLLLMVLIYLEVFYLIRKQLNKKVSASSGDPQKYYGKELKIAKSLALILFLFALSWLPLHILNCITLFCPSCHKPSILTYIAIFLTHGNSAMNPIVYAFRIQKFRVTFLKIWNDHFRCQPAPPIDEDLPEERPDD
metric name: Ki (nM)
Response body: numeric value in nM, unit text excluded.

Form: Entry = "Nc1nc(N2CCN3CCC[C@@H]3C2)cc2nc(-c3ccco3)nn12" | System = Adenosine receptor A1 (Homo sapiens, UniProt P30542) | Ki = ____
1100

###

Experiment: in vivo
Conditions: rat, po, 3 mg/kg
metric name: bioavailability

Returns the measured bioavailability for the input compound. Input: "Cn1nc(C(F)(F)F)c(CN2CCN(c3nc(N)n4nc(-c5ccco5)nc4n3)CC2)c1Cl"
7%

###

Biological target: D(3) dopamine receptor (Homo sapiens, UniProt P35462)
Sequence (P35462 whole entry): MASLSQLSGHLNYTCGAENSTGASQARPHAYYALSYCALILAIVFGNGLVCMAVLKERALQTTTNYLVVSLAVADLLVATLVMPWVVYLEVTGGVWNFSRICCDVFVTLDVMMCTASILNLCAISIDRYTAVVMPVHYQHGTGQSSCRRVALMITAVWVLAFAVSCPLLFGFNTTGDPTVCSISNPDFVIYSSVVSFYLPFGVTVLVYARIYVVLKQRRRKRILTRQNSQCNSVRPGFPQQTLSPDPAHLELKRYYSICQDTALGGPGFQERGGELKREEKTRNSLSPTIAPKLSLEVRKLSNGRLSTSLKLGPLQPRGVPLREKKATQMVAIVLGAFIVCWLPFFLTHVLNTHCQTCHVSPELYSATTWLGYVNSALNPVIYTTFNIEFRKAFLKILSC
Assay: Agonist activity at dopamine D3 receptor (unknown origin) assessed as increase in GTPgammaS binding
metric name: pEC50
On this scale, pEC50 is minus log10 of a concentration expressed in M (mol/L).

Returns the measured pEC50 for the input compound. Input: "CCCN(CCN1CCN(c2ccc3c(c2)[nH]c2ccccc23)CC1)[C@H]1CCc2c(O)cccc2C1"
9.06

###

Test: Metabolic stability at human liver microsomes assessed as intrinsic clearance
metric name: CLint scaled (mL/min/kg)
Response body: numeric value in mL/min/kg, unit text excluded.

Returns the measured CLint scaled for the input compound. Input: "CO[C@@H]1CCN(c2cccc(-c3nc(-n4nc(C)cc4C)nc(N)c3C#N)n2)C1"
34

###

Biological target: D(3) dopamine receptor (Homo sapiens)
Assay: Agonist activity at dopamine D3 receptor (unknown origin)
metric name: pEC50
On this scale, pEC50 is minus log10 of a concentration expressed in M (mol/L).

Form: Entry = "CCCN(CCN1CCN(c2ccccc2)CC1)[C@H]1CCc2ccc(O)cc2C1" | System = D(3) dopamine receptor (Homo sapiens) | pEC50 = ____
8.54

###

Let's go through some recorded pEC50 values for UniProtKB P14416 together.
Sequence (P14416 whole entry): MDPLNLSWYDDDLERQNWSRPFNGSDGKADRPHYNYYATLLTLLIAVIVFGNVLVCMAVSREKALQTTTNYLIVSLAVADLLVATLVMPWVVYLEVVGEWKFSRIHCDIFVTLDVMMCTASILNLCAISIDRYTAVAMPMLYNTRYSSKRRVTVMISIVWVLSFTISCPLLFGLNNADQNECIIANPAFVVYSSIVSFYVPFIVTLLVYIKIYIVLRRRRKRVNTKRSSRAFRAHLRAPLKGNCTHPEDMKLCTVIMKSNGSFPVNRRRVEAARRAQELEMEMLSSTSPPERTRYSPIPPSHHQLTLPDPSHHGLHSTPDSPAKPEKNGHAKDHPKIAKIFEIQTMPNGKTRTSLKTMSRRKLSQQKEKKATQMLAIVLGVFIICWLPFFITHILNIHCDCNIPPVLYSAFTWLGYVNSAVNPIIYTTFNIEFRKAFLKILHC
On this scale, pEC50 is minus log10 of a concentration expressed in M (mol/L).

molecule_smiles=CCCN(CCN1CCN(c2ccccc2)CC1)[C@H]1CCc2ccc(O)cc2C1 numeric_value=8.00

Now take the following molecule into account.
Form: Entry = "CCCN(CCN1CCN(c2ccc(-c3ccccn3)nc2)CC1)[C@H]1CCc2nc(N)sc2C1" | System = UniProtKB P14416 | pEC50 = ____
7.29

###

Test: Drug concentration in 6-OHDA-unilateral lesioned mouse model of Parkinson's disease assessed as brain concentration at 50 mg/kg,ip measured after 4 hrs
metric name: concentration at 4 h (µM)
Response body: numeric value in µM, unit text excluded.

Returns the measured concentration at 4 h for the input compound. Input: "Cc1cc(Oc2nccc3occc23)ccc1-c1c(C)c(=O)[nH]c(=O)n1C"
100

###

Assay: Metabolic stability at human liver microsomes assessed as half life
metric name: half-life (min)
Response body: numeric value in min, unit text excluded.

Returns the measured half-life for the input compound. Input: "CO[C@@H]1CCN(c2cccc(-c3nc(-n4nc(C)cc4C)nc(N)c3C#N)n2)C1"
53

###

Target protein (sequence): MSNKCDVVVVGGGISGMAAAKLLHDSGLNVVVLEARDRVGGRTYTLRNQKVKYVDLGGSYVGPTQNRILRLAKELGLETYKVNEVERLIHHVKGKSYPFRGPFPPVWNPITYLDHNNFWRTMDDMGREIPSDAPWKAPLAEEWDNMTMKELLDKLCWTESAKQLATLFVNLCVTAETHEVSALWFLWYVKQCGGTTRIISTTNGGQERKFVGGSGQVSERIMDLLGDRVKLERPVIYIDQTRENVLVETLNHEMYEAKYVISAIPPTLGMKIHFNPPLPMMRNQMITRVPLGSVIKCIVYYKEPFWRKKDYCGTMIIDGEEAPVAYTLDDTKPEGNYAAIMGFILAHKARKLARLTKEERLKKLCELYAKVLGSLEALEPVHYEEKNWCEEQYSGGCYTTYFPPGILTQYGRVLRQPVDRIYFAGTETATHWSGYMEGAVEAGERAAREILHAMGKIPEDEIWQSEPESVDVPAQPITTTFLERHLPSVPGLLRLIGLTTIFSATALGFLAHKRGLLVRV
metric name: pIC50
On this scale, pIC50 is minus log10 of a concentration expressed in M (mol/L).

Returns the measured pIC50 for the input compound. Input: "COc1ccc(/C(C)=N/NC(=O)c2cc(-c3ccccc3)on2)cc1OC"
8.23

Returns the measured pIC50 for the input compound. Input: "CNCc1cc(=O)oc2c(O)c(O)ccc12"
4.91

###

Experiment: Plasma concentration in 6-OHDA-unilateral lesioned mouse model of Parkinson's disease at 50 mg/kg,ip measured after 4 hrs
metric name: concentration at 4 h (µM)
Response body: numeric value in µM, unit text excluded.

Returns the measured concentration at 4 h for the input compound. Input: "Cc1cc(Oc2nccc3occc23)ccc1-c1c(C)c(=O)[nH]c(=O)n1C"
100

###

Test: Displacement of [3H]-spiperone from D2 receptor in rat striatum incubated for 90 mins by competitive radioligand binding based scintillation counter analysis
metric name: pKi
On this scale, pKi is minus log10 of a concentration expressed in M (mol/L).

molecule_smiles=C#CCN1CCC[C@H]2c3[nH]c4ccccc4c3CC[C@@H]21 numeric_value=8.96

Now take the following molecule into account.
Returns the measured pKi for the input molecule. Input: "CCCN1CCC[C@H]2c3[nH]c4ccccc4c3CC[C@@H]21"
8.88

###

Test: in vivo
Settings: rat, po, 15 mg/kg
Description: Oral bioavailability in 6-OHDA-unilateral lesioned rat model of Parkinson's disease at 15 mg/kg
metric name: bioavailability (%)
Response body: numeric value in %, unit text excluded.

Returns the measured bioavailability for the input compound. Input: "Fc1ccc(Nc2n[nH]c3cccnc23)cc1Cl"
95

###

Assay: Inhibition of Monoamine oxidase in MPTP-induced C57BL/6 mouse assessed as inhibition constant
metric name: Ki (µM)
Response body: numeric value in µM, unit text excluded.

Returns the measured Ki for the input compound. Input: "CC1=C(C)C(=O)c2cc(C)ccc2C1=O"
6

###

Let's go through some recorded pKi values for Adenosine receptor A2a (Homo sapiens, UniProt P29274) together.
On this scale, pKi is minus log10 of a concentration expressed in M (mol/L).

molecule_smiles=Nc1nc(N2CCN3CCC[C@@H]3C2)cc2nc(-c3ccco3)nn12 numeric_value=7.20

Now take the following molecule into account.
Returns the measured pKi for the input molecule. Input: "COC[C@H]1CCCN1c1cc(Nc2ccccn2)nc(-n2cccn2)n1"
9.66
